src = patent US3995059A

PROCEDURE_SUMMARY: Acute oral toxicity, LD50 (Table 2)
CONDITION_SUMMARY: in vivo, mouse, P.O.
MEASURE: LD50

LD50 recorded for this compound, CCCCC/C=C\C/C=C\CCCCCCCC(=O)NC(C)c1ccccc1 (stereo not shown) [drawing 136] , is > 50000 mg/kg

LD50 recorded for this compound, CCCCC/C=C\C/C=C\CCCCCCCC(=O)NC(C)c1ccc(C)cc1 (stereo not shown) [drawing 138] , is > 50000 mg/kg

LD50 recorded for this compound, CCCCC/C=C\C/C=C\CCCCCCCC(=O)NC(Cc1ccccc1)c1ccccc1 (stereo not shown) , is > 50000 mg/kg

LD50 recorded for this compound, CCCCC/C=C\C/C=C\CCCCCCCC(=O)NC12CC3CC(CC(C3)C1)C2 [drawing 140] , is > 50000 mg/kg
